Ref: PubChem BioAssay (NCI)

# System: UACC-257 melanoma
# Assay Info: NCI tumour cell line growth inhibition, 48 h
Answer each item with its documented TGI.

Notebook entry, UACC-257 melanoma assay: TGI of N.N.NCCCCCCCCCN.O=C([O-])CC(=O)[O-].O=C([O-])CC(=O)[O-].[Pt+4].[Pt+4] = ? > 100 µM

Notebook entry, UACC-257 melanoma assay: TGI of CCCCC#CS(=O)(=O)C(F)(F)F = ? > 100 µM

Notebook entry, UACC-257 melanoma assay: TGI of O=C(O)CSc1n[nH]c(Cc2ccccc2)n1 = ? > 100 µM

Notebook entry, UACC-257 melanoma assay: TGI of COC(=O)c1cccc2cccc(C(=O)Nc3ccc(Cl)cc3)c12 = ? > 100 µM

Notebook entry, UACC-257 melanoma assay: TGI of Nc1nc(N)nc(CCCc2nc(N)nc(N)n2)n1 = ? > 100 µM

Notebook entry, UACC-257 melanoma assay: TGI of CC1=C(C(=O)Nc2ccccc2)C(c2ccc(C3C(C(=O)Nc4ccccc4)=C(C)NC(C)=C3C(=O)Nc3ccccc3)cc2)C(C(=O)Nc2ccccc2)=C(C)N1 = ? 5.06 µM

Notebook entry, UACC-257 melanoma assay: TGI of Cn1c(=O)c2c(ncn2CC(=O)Nc2ccc(-c3ccccc3)nn2)n(C)c1=O = ? > 100 µM

Notebook entry, UACC-257 melanoma assay: TGI of CCOC(CN(C)C(=S)Nc1cccc2ccccc12)OCC = ? > 10 µM

Notebook entry, UACC-257 melanoma assay: TGI of CCCCC/C(C=O)=C\c1ccccc1 = ? > 100 µM

Notebook entry, UACC-257 melanoma assay: TGI of Clc1ccc(Cl)c(SCCCN2CCNCC2)c1 = ? 26.5 µM

Notebook entry, UACC-257 melanoma assay: TGI of COc1ccc(/C=N/N2C(=O)c3c(N)c(C#N)c(-c4ccccc4)c(-c4ccccc4)c3C2=O)cc1 = ? > 100 µM

Notebook entry, UACC-257 melanoma assay: TGI of COC(=O)/C(=C\c1ccc(N(CCC#N)CCC#N)cc1)NC(=O)c1cc([N+](=O)[O-])ccc1Cl = ? > 100 µM

Notebook entry, UACC-257 melanoma assay: TGI of CCc1nc2cc3cccnc3c(Cl)c2[nH]c1=O = ? > 100 µM

Notebook entry, UACC-257 melanoma assay: TGI of COC(=O)c1cc2c(cc1CC(Cc1ccc3c(c1)CCC3)C(=O)OC)CCC2 (stereo unspecified) = ? 81.3 µM

Notebook entry, UACC-257 melanoma assay: TGI of COC(=O)C1=C(O)C(C(=O)OC)[C@@]2(O)[C@@H](C(=O)OC)[C@H](C)[C@@H](C)[C@@H]1[C@@H]2C(=O)OC (stereo partly specified) = ? > 100 µM

Notebook entry, UACC-257 melanoma assay: TGI of Nc1ccccc1SC1CC(=O)N(c2ccc(Cl)c(Cl)c2)C1=O (stereo unspecified) = ? > 100 µM

Notebook entry, UACC-257 melanoma assay: TGI of O=C(O)CN(c1ccccc1)S(=O)(=O)c1ccc([N+](=O)[O-])cc1 = ? > 100 µM

Notebook entry, UACC-257 melanoma assay: TGI of Nc1nc(Nc2ccccc2)sc1C(=O)c1c[nH]c2ccccc12 = ? 22.6 µM

Notebook entry, UACC-257 melanoma assay: TGI of Cc1c(C#N)c(N)n(C2OCC(O)C(O)C2O)c(=S)c1C#N (stereo unspecified) = ? > 100 µM

Notebook entry, UACC-257 melanoma assay: TGI of CC1=C(c2cc(C(=O)Nc3ccc(Cl)cc3)nc(=S)[nH]2)Sc2ccccc2N1 = ? > 100 µM

Notebook entry, UACC-257 melanoma assay: TGI of CC(C)(C)OC(=O)C1C(=O)NC(=O)CC1C(COCc1ccccc1)OCc1ccccc1 (stereo unspecified) = ? 41.4 µM
